compounds and their reported Antibacterial activity (MIC)
System: E. coli UBMS 89-2 (Sensitive)
Assay: MIC, agar dilution
Type: cell-based
Settings: E. coli UBMS 89-2 Tet Sens.; Table IA; unit assumed
Structures can show the parent of a compound that is named as a salt.

{"compound": "CCCCNCC(=O)Nc1cc(N(C)C)c2c(c1O)C(=O)C1=C(O)C3(O)C(=O)C(C(N)=O)=C(O)C(N(C)C)C3CC1C2.Cl.Cl (stereo not drawn)", "Antibacterial activity (MIC), µg/mL": 0.5}
{"compound": "CCCNCC(=O)Nc1cc(N(C)C)c2c(c1O)C(=O)C1=C(O)C3(O)C(=O)C(C(N)=O)=C(O)C(N(C)C)C3CC1C2.Cl.Cl (stereo not drawn)", "Antibacterial activity (MIC), µg/mL": 0.25}
{"compound": "CCCCCCNCC(=O)Nc1cc(N(C)C)c2c(c1O)C(=O)C1=C(O)[C@]3(O)C(=O)C(C(N)=O)=C(O)[C@@H](N(C)C)C3CC1C2 (stereo partly drawn) [BBB, dihydrochloride]", "Antibacterial activity (MIC), µg/mL": 0.25}
{"compound": "CN(C)CC(=O)Nc1cc(N(C)C)c2c(c1O)C(=O)C1=C(O)[C@]3(O)C(=O)C(C(=O)NCN4CCCCC4)=C(O)[C@@H](N(C)C)C3CC1C2 (stereo partly drawn)", "Antibacterial activity (MIC), µg/mL": 0.25}
{"compound": "CN(C)CC(=O)Nc1cc(N(C)C)c2c(c1O)C(=O)C1=C(O)[C@]3(O)C(=O)C(C(=O)NCN4CCCC4)=C(O)[C@@H](N(C)C)C3CC1C2 (stereo partly drawn)", "Antibacterial activity (MIC), µg/mL": 0.25}
{"compound": "CCNCC(=O)Nc1cc(N(C)C)c2c(c1O)C(=O)C1=C(O)[C@]3(O)C(=O)C(C(N)=O)=C(O)[C@@H](N(C)C)C3CC1C2.Cl.Cl (stereo partly drawn)", "Antibacterial activity (MIC), µg/mL": 1}
{"compound": "CN(C)c1cc(NC(=O)CN2CCCCC2)c(O)c2c1CC1CC3C(N(C)C)C(O)=C(C(N)=O)C(=O)C3(O)C(O)=C1C2=O.Cl.Cl (stereo not drawn)", "Antibacterial activity (MIC), µg/mL": 0.5}
{"compound": "CC(C(=O)Nc1cc(N(C)C)c2c(c1O)C(=O)C1=C(O)[C@]3(O)C(=O)C(C(N)=O)=C(O)[C@@H](N(C)C)C3CC1C2)N(C)C.Cl.Cl (stereo partly drawn)", "Antibacterial activity (MIC), µg/mL": 0.5}
{"compound": "CN(C)CC(=O)Nc1cc(N(C)C)c2c(c1O)C(=O)C1=C(O)C3(O)C(=O)C(C(N)=O)=C(O)C(N(C)C)C3CC1C2.O=S(=O)(O)O.O=S(=O)(O)O (stereo not drawn)", "Antibacterial activity (MIC), µg/mL": 0.25}
{"compound": "CNCC(=O)Nc1cc(N(C)C)c2c(c1O)C(=O)C1=C(O)[C@]3(O)C(=O)C(C(N)=O)=C(O)[C@@H](N(C)C)C3CC1C2.Cl.Cl (stereo partly drawn)", "Antibacterial activity (MIC), µg/mL": 1}
{"compound": "CN(C)c1cc(NC(=O)CN2CCC2)c(O)c2c1CC1CC3C(N(C)C)C(O)=C(C(N)=O)C(=O)C3(O)C(O)=C1C2=O (stereo not drawn)", "Antibacterial activity (MIC), µg/mL": 0.5}
{"compound": "CC(C(=O)Nc1cc(N(C)C)c2c(c1O)C(=O)C1=C(O)C3(O)C(=O)C(C(N)=O)=C(O)C(N(C)C)C3CC1C2)N1CCCC1.Cl.Cl (stereo not drawn)", "Antibacterial activity (MIC), µg/mL": 0.5}
